Measurement Protocol: Inhibition of PDK1 (unknown origin)
Below, each of the compounds is paired with its reported IC50 value.

Record Smiles: C/C(=C1/C(=O)Nc2ccc(NC(N)=O)cc21)c1cc(CNC(=O)C2CCNCC2)c[nH]1
Value Units: nM
IC50: 6
--
Record Smiles: CN(C)CCNC(=O)c1cccc(-c2c[nH]c(/C=C3\C(=O)Nc4ccc(NC(N)=O)cc43)c2)c1
Value Units: nM
IC50: 4
--
Record Smiles: NC(=O)Nc1ccc2c(c1)/C(=C/c1ccc[nH]1)C(=O)N2
Value Units: nM
IC50: 20
--
Record Smiles: NC(=O)Nc1ccc2c(c1)/C(=C/c1cc(-c3ccccn3)c[nH]1)C(=O)N2
Value Units: nM
IC50: 8
